Target: 5-HT3 receptors (Mus musculus, UniProt P23979)
Sequence (P23979 24-489): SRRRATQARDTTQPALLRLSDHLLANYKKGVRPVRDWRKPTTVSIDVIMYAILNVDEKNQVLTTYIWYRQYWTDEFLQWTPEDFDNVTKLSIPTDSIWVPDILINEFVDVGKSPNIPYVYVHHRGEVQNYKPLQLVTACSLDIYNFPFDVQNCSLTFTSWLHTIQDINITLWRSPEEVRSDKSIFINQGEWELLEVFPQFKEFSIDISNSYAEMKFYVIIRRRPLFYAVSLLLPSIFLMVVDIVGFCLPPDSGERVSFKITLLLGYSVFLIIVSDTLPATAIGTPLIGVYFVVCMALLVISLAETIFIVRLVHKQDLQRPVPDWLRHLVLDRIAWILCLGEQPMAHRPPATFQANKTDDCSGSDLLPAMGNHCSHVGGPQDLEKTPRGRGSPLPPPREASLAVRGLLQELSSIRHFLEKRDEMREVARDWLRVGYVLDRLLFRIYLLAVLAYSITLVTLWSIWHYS
MEASUREMENT LABEL: pKi
Notebook: values listed as pKi are -log10 of the concentration (mol/L).

According to the records, this compound Cc1nccn1CC1CCc2c(c3ccccc3n2C)C1=O (stereo not shown) displays pKi of 7.80
